Record: pIC50 reported on α-amylase (Sus scrofa).
Sequence (P00690 16-511): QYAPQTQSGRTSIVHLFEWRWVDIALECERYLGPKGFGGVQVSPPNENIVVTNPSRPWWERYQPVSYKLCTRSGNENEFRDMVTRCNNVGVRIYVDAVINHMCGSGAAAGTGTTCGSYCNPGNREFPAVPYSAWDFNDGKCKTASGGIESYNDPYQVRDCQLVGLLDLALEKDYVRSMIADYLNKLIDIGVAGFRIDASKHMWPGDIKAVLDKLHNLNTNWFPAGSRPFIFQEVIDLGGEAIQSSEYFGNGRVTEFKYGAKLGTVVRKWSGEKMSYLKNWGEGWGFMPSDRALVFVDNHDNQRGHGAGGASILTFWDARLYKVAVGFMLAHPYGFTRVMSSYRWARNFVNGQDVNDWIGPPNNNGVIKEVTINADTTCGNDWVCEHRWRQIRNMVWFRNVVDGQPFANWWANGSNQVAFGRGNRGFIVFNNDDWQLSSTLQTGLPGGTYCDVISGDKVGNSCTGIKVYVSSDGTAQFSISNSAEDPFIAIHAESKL
Note on units: pIC50 is unitless, being -log10 of a concentration expressed in mol/L.

COMPOUND	pIC50
C[C@@H]1O[C@@H](OC[C@H]2O[C@@H](Oc3cc4c(O)cc(O)cc4[o+]c3-c3ccc(O)c(O)c3)[C@H](O)[C@@H](O)[C@@H]2O)[C@H](O)[C@H](O)[C@H]1O [C3R, cyanidin-3-rutinoside]	3.32
COc1cc(-c2[o+]c3cc(O)cc(O)c3cc2O[C@@H]2O[C@H](CO)[C@@H](O)[C@H](O)[C@H]2O)ccc1O [P3G, peonidin-3-glucoside]	3.19

Enquiry: Please report the measured pIC50 for OC[C@H]1O[C@@H](Oc2cc3c(O)cc(O)cc3[o+]c2-c2ccc(O)c(O)c2)[C@H](O)[C@@H](O)[C@@H]1O [C3G, cyanidin-3-glucoside] tested on α-amylase (Sus scrofa).
Return: 3.44
